# credit: patent US20030232101A1

Tested on: HIV-1
Assay: HeLa CD4 LTR β-gal HIV-1 attachment assay (Experimental Example 1)
Type: cell-based
Conditions: Human immunodeficiency virus 1, HeLa, Experiment 2; pretreat 0 h
measured endpoint: pIC50
Expect pIC50 as a plain number equal to -log10 of the molar concentration.

Task item: Request body: readout pIC50, system HIV-1, query CC(C)=CCCC1(C)CCc2c(O)cc(C(C)(C)CCCC(C)C)cc2O1 (stereo not drawn) . Return the value.
Reply: 6.05

Task item: Form field: pIC50 recorded for CC1=CCC2C(C1)c1c(O)cc(C(C)(C)CCCC(C)C)cc1OC2(C)C (stereo not drawn) with HIV-1 (enter value)
Reply: 4.55

###

Assay: Compound toxicity in the fusion assay, sister plate, XTT or MTS (Example 2)
Assay type: cell-based
Details: human, HeLa CD4 LTR β-gal cells, read-out: Fusion Assay TC50
measured endpoint: CC50 (µM)
Field format: number, assumed µM, no unit text.

Task item: Which value of CC50 has been reported for `Cc1ccc2c(c1)-c1c(O)cc(C(C)(C)CCCC(C)C)cc1OC2(C)C` in the records?
Reply: 20.7

Task item: Need CC50, item CC1=CCC2C(C1)c1c(O)cc(C(C)(C)CCCC(C)C)cc1OC2(C)C (stereo not drawn)
Reply: 18.4

###

Tested on: HIV-1
Test: HeLa CD4 LTR β-gal HIV-1 attachment assay (Experimental Example 1)
Type: cell-based
Details: following a 24 h pre-incubation
measured endpoint: inhibition of HIV attachment/entry

Task item: GET /values?readout=inhibition of HIV attachment/entry&item= CC1=CCC2C(C1)c1c(O)cc(C(C)(C)CCCC(C)C)cc1OC2(C)C (stereo not drawn) [IMG509]
Reply: not

Task item: Fill in the blank: the reported inhibition of HIV attachment/entry of CC(C)=CCCC1(C)CCc2c(O)cc(C(C)(C)CCCC(C)C)cc2O1 (stereo not drawn) [IMG508] is ____.
Reply: consistent inhibition

Task item: # query: inhibition of HIV attachment/entry of entry C=C(C)[C@@H]1CCC(C)=C[C@H]1c1c(O)cc(CCCCC)cc1O [Cannabidiol, reference compound]
Reply: consistent inhibition

Task item: What inhibition of HIV attachment/entry value was documented for this molecule, Cc1ccc2c(c1)-c1c(O)cc(C(C)(C)CCCC(C)C)cc1OC2(C)C [IMG511] ?
Reply: consistent inhibition

New cases:
Task item: Given the molecule Cc1c(O)cc(C(C)(C)CCCC(C)C)cc1O [IMG510] , what is its reported inhibition of HIV attachment/entry?
Reply: consistent inhibition

Task item: Can you share its inhibition of HIV attachment/entry? I mean this molecule: COc1cc(C(C)(C)CCCC(C)C)cc(OC)c1OC [IMG507]
Reply: not

###

Assay: PBMC cell viability in time of addition assay (MTS / Trypan Blue)
Assay type: cell-based, Human
Settings: human; treatment at infection; read-out: TC50
measured endpoint: CC50 at 6 days

Task item: Tell me the measured CC50 at 6 days of `COc1cc(C(C)(C)CCCC(C)C)cc(OC)c1OC` , please.
Reply: > 100 µM

###

Experiment: Compound toxicity in the attachment assay, sister plates, MTS dye reduction
Assay type: cell-based
Conditions: human, HeLa CD4 LTR β-gal cells, Experiment 2; pretreat 4 h; read-out: TC50
What CC50 at 48 h was measured for each of the following?
Lab book: enter the figure in µM, no units written.

Task item: Given the entry C=C(C)[C@@H]1CCC(C)=C[C@H]1c1c(O)cc(CCCCC)cc1O [Cannabidiol, reference compound] , report its measured CC50 at 48 h.
Reply: 41

Task item: Given the entry CC1=CCC2C(C1)c1c(O)cc(C(C)(C)CCCC(C)C)cc1OC2(C)C (stereo not drawn) , report its measured CC50 at 48 h.
Reply: 37

Task item: Look up CC50 at 48 h for this compound: CC(C)=CCCC1(C)CCc2c(O)cc(C(C)(C)CCCC(C)C)cc2O1 (stereo not drawn)
Reply: 29

###

Tested on: HIV-1
Assay: HeLa CD4 LTR β-gal HIV-1 attachment assay (Experimental Example 1)
Format: cell-based
Conditions: Human immunodeficiency virus 1, HeLa, Experiment 1; pretreat 4 h
Exercise: for every item that follows, state its recorded IC50.
State the answer as a number, implicitly in µM.

Task item: Return reported IC50; argument: C=C(C)[C@@H]1CCC(C)=C[C@H]1c1c(O)cc(CCCCC)cc1O [Cannabidiol, reference compound]
Reply: 6.8

Task item: Find the recorded IC50 belonging to Cc1ccc2c(c1)-c1c(O)cc(C(C)(C)CCCC(C)C)cc1OC2(C)C [IMG511] and report it.
Reply: 9.5

Task item: Item under review: CC1=CCC2C(C1)c1c(O)cc(C(C)(C)CCCC(C)C)cc1OC2(C)C (stereo not shown) [IMG509] . Reported IC50?
Reply: 21

Task item: Quick check: IC50 of CC(C)=CCCC1(C)CCc2c(O)cc(C(C)(C)CCCC(C)C)cc2O1 (stereo not shown) [IMG508] ?
Reply: 10.8

###

Test system: HIV-1 (96USHIPS7 strain)
Assay: HIV attachment assay in PBMCs (cell-associated p24)
Assay type: cell-based
Conditions: 15 μM; time 4 h
Task for the reader: assign each of the following compounds its reported pg p24.
Use pg as the unit, but write only the number.

Task item: Which pg p24 reading was recorded for the compound `Cc1ccc2c(c1)-c1c(O)cc(C(C)(C)CCCC(C)C)cc1OC2(C)C` ?
Reply: 294

Task item: Name the recorded pg p24 for CC(C)=CCCC1(C)CCc2c(O)cc(C(C)(C)CCCC(C)C)cc2O1 (stereo not drawn) .
Reply: 279

Task item: I am curious: what pg p24 value has been reported for CC1=CCC2C(C1)c1c(O)cc(C(C)(C)CCCC(C)C)cc1OC2(C)C (stereo not drawn) ?
Reply: 235

Task item: Which value of pg p24 has been reported for `COc1cc(C(C)(C)CCCC(C)C)cc(OC)c1OC` in the records?
Reply: 293

Task item: Using the record for `Cc1c(O)cc(C(C)(C)CCCC(C)C)cc1O` , report its pg p24.
Reply: 274

Task item: Fill in the blank: the reported pg p24 of C=C(C)[C@@H]1CCC(C)=C[C@H]1c1c(O)cc(CCCCC)cc1O [Cannabidiol, reference compound] is ____.
Reply: 349

###

Test system: HIV-1 (96USHIPS7 strain)
Experiment: HIV attachment assay in PBMCs (cell-associated p24)
Type: cell-based
Settings: 15 μM; time 2 h
Protocol: ELISA kits were purchased from Coulter Electronics. The assay was performed according to the manufacturer's instructions. Control curves were generated in each assay to accurately quantitate the amount of p24 antigen in each sample. For experiments using cell lysates. Fifty thousand (5×10^4) viable cells were lysed in Coulter ELISA buffer and subjected to 1 round of freeze/thawed to liberate trapped p24 and p24 detected per manufacturers instructions. […]
For each of the molecules below, state its % Control.
Could you give me the number in %? Just the number is fine.

Task item: // fetch HIV-1 (96USHIPS7 strain) % Control for `Cc1ccc2c(c1)-c1c(O)cc(C(C)(C)CCCC(C)C)cc1OC2(C)C`
Reply: 85.4

Task item: API: value(readout=% Control, system=HIV-1 (96USHIPS7 strain)) for record C=C(C)[C@@H]1CCC(C)=C[C@H]1c1c(O)cc(CCCCC)cc1O [Cannabidiol, reference compound]
Reply: 74.5

Task item: # query: % Control | item CC1=CCC2C(C1)c1c(O)cc(C(C)(C)CCCC(C)C)cc1OC2(C)C (stereo not drawn) | system: HIV-1 (96USHIPS7 strain)
Reply: 81.8

Task item: Notebook entry, HIV-1 (96USHIPS7 strain) assay: % Control of CC(C)=CCCC1(C)CCc2c(O)cc(C(C)(C)CCCC(C)C)cc2O1 (stereo not drawn) = ?
Reply: 85.4

Task item: Recall the recorded % Control for `Cc1c(O)cc(C(C)(C)CCCC(C)C)cc1O` with HIV-1 (96USHIPS7 strain) and state it.
Reply: 85.7

Task item: What value of % Control on HIV-1 (96USHIPS7 strain) does `COc1cc(C(C)(C)CCCC(C)C)cc(OC)c1OC` have?
Reply: 91.4

###

System: HIV-1
Assay: HeLa CD4 LTR β-gal HIV-1 attachment assay (Experimental Example 1)
Type: cell-based
Conditions: Human immunodeficiency virus 1, HeLa, Experiment 1; pretreat 0 h
measured endpoint: IC50 (µM)
Answer format: numeric, µM implied, no suffix.

Task item: So what's the measured IC50 for this one? C=C(C)[C@@H]1CCC(C)=C[C@H]1c1c(O)cc(CCCCC)cc1O [Cannabidiol, reference compound]
Reply: 14.1

Task item: Which IC50 reading was recorded for the compound `Cc1ccc2c(c1)-c1c(O)cc(C(C)(C)CCCC(C)C)cc1OC2(C)C` ?
Reply: 25

Task item: Query: IC50; subject: CC(C)=CCCC1(C)CCc2c(O)cc(C(C)(C)CCCC(C)C)cc2O1 (stereo not shown)
Reply: 16
